- target_or_test_system: EmbC^CT (C-terminal domain of M. tuberculosis EmbC, residues 719–1094) (Mycobacterium tuberculosis, UniProt P9WNL5)
- Sequence (P9WNL5 719-1094 limits assumed): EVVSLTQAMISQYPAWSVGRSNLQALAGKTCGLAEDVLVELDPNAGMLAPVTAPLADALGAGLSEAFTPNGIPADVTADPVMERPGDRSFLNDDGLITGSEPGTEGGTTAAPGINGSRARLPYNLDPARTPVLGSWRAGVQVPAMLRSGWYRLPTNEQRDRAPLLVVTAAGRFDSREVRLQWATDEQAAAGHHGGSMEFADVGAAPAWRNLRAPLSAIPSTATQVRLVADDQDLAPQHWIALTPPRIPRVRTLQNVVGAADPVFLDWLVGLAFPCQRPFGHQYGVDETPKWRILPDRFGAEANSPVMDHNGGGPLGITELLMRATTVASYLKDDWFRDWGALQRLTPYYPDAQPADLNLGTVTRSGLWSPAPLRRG
- experiment: Solution binding assay by intrinsic tryptophan fluorescence, wild-type EmbC^CT
- conditions: wild-type EmbC^CT 20 µM, 50 mM KH2PO4 pH 7.9, 300 mM NaCl; single site saturation fit

molecule	Fmax
CCCCCCCCO[C@H]1O[C@H](CO[C@H]2O[C@H](CO[C@H]3O[C@H](CO)[C@@H](O)[C@@H]3O)[C@@H](O)[C@@H]2O)[C@@H](O)[C@@H]1O [Ara(1→5)2Ara-O-C8, [α-D-Araf-(1→5)]2-α-D-Araf-O-(CH2)7CH3]	0.105
CCCCCCCCO[C@H]1O[C@H](CO[C@H]2O[C@H](CO)[C@@H](O)[C@@H]2O)[C@@H](O)[C@@H]1O [Ara(1→5)Ara-O-C8, α-D-Araf-(1→5)-α-D-Araf-O-(CH2)7CH3]	0.22
CCCCCCCCO[C@H]1O[C@H](CO[C@H]2O[C@H](CO[C@H]3O[C@H](CO[C@H]4O[C@H](CO[C@H]5O[C@H](CO)[C@@H](O)[C@@H]5O)[C@@H](O)[C@@H]4O)[C@@H](O)[C@@H]3O)[C@@H](O)[C@@H]2O)[C@@H](O)[C@@H]1O [Ara(1→5)4Ara-O-C8, [α-D-Araf-(1→5)]4-α-D-Araf-O-(CH2)7CH3]	0.157
CO[C@H]1O[C@H](CO[C@H]2O[C@H](CO)[C@@H](O)[C@@H]2O)[C@@H](O)[C@@H]1O [Ara(1→5)Ara-O-C1, α-D-Araf-(1→5)-α-D-Araf-O-CH3]	0.26
